Reference source: ChEMBL document CHEMBL1157539

What Inhibition was measured for each of the following?
# Test system: Plasmodium falciparum
# test.summary: GSK_TCMDC: Inhibition of Plasmodium falciparum 3D7 in whole red blood cells, using parasite LDH activity as an index of growth. Test compounds present at 2uM
# Type: functional
Numbers only, in %.

{"compound": "O=C(Nc1ccc(-c2nc3ccccc3[nH]2)cc1)c1cccc(S(=O)(=O)N2CCCC2)c1", "reported.measurement": 100}
{"compound": "N#Cc1cccc(NC(=O)NC2CCN(CCCCCNC(=O)/C=C/c3ccc(Cl)c(Cl)c3)CC2)c1", "reported.measurement": 100}
{"compound": "c1cncc(Oc2ccc(Nc3ccnc4cc(-c5cccc(CNCCN6CCOCC6)c5)ccc34)cc2)c1", "reported.measurement": 100}

// each compound listed below needs its Inhibition
1. Cl.N=C(N)NN=C1C=Cc2cccc3cccc1c23
2. O=C(c1cc(-c2ccccc2)n[nH]1)N1CCN(S(=O)(=O)c2ccc(Cl)s2)CC1
3. c1ccc(Oc2ccc(Nc3ccnc(Nc4ccc(CN5CCOCC5)cc4)n3)cc2)cc1

1. 100
2. 88
3. 92

----------
What Inhibition was measured for each of the following?
# Test system: Plasmodium falciparum
# test.summary: GSK_TCMDC: Inhibition of Plasmodium falciparum 3D7 in whole red blood cells, using parasite LDH activity as an index of growth. Test compounds present at 2uM
# Format: functional
I'd appreciate it if you included the unit after the number.

Examples with their reported Inhibition follow.
{"compound": "O=C(/C=C/c1ccc(Cl)c(Cl)c1)NCCCCCN1CCC(C(=O)Nc2cccc(Cl)c2)CC1", "assayed.target": "Plasmodium falciparum", "reported.measurement": "100%"}
{"compound": "COc1ccc(Cl)cc1NC(=O)Nc1ccnc2ccccc12", "assayed.target": "Plasmodium falciparum", "reported.measurement": "100%"}
{"compound": "N#Cc1cccc(C(=O)Nc2ccc(-c3nc4ccccc4[nH]3)cc2)c1", "assayed.target": "Plasmodium falciparum", "reported.measurement": "91%"}
{"compound": "CCOc1ccccc1C(=O)Nc1cccc(-c2nc3ncccn3c2C)c1", "assayed.target": "Plasmodium falciparum", "reported.measurement": "92%"}
{"compound": "CN1CCN(c2cccc(-c3nnc(-c4ccc(OCC(=O)NCc5ccc(C(F)(F)F)cc5)c([N+](=O)[O-])c4)o3)c2)CC1", "assayed.target": "Plasmodium falciparum", "reported.measurement": "90%"}
{"compound": "O=C(O)C(F)(F)F.O=C1OC2(CN1CC1CCN(Cc3ccc(-n4ccnc4)cc3)C1)c1ccccc1-c1ccccc12 (centres undefined)", "assayed.target": "Plasmodium falciparum", "reported.measurement": "96%"}
{"compound": "COc1cc2ncnc(Nc3ccc(Br)c(Cl)c3)c2cc1OC.Cl", "assayed.target": "Plasmodium falciparum", "reported.measurement": "100%"}
{"compound": "COc1ccc(NC(=O)Nc2ccc(-c3cccc(-c4nc5cccc(C)c5[nH]4)c3)cc2)cc1", "assayed.target": "Plasmodium falciparum", "reported.measurement": "100%"}
{"compound": "COc1cc(CNC[C@@H](O)[C@H](Cc2ccccc2)NC(=O)c2cc(OC(C)C)cc(N3CCCCS3(=O)=O)c2)cc(OC)c1.Cl", "assayed.target": "Plasmodium falciparum", "reported.measurement": "100%"}
{"compound": "CCCCCCOc1ccc(C(=O)NCCCC2CCCN(CCCCCNC(=O)C=Cc3ccc(Cl)c(Cl)c3)C2)cc1 (centres undefined)", "assayed.target": "Plasmodium falciparum", "reported.measurement": "96%"}

// each compound listed below needs its Inhibition
1. O=C(Nc1cccc(-c2ccc(-c3nc4cc(C(F)(F)F)ccc4[nH]3)cc2)c1)c1cccnc1
2. CCCCCCN(C(=O)OCc1ccccc1)C1CCN(C(=O)OC(C)(C)C)CC1C(=O)OCC (centres undefined)

100%
96%

// each compound listed below needs its Inhibition
1. O=C(O)C(F)(F)F.OC1CCCN(Cc2ccc(-c3ccc(-c4nc5ccccc5[nH]4)cc3)cc2)C1 (centres undefined)
2. COc1ccc(C2CC(c3cccs3)=NN2C(=O)COc2cccc(C(C)=O)c2)cc1OC (centres undefined)

["100%", "99%"]
